Source of measurements: the supplement of paper PMC9112550

- System: Escherichia coli TOP10;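 further: peptides expressed intracellularly from a pBAD plasmid library in pooled LB shake-flask culture, induced with 0.3% L-arabinose, DNA abundance read by NGS, three biological replicates, DESeq2 with apeglm shrinkage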
- Method description: shrunken log2 fold change of peptide-encoding DNA abundance (4.5 h post-induction vs induction); higher = less antimicrobial activity (less host growth inhibition)
- Setup conditions: time post-induction: 4.5 h; library: site-saturation at positions 5, 18, 19, 20
Assay endpoint: shrunken log2 fold change

> print(dat)
            input.sequence           tested.target             assay.endpoint  recorded.value
1  RRIRQRPPRLPRPRPRPHCYPRP  Escherichia coli TOP10  shrunken log2 fold change         -0.0282
2  RRIRWRPPRLPRPRPRPWELPRP  Escherichia coli TOP10  shrunken log2 fold change         -0.0481
3  RRIRMRPPRLPRPRPRPRWKPRP  Escherichia coli TOP10  shrunken log2 fold change           0.214
4  RRIRHRPPRLPRPRPRPEPFPRP  Escherichia coli TOP10  shrunken log2 fold change          0.0638
5  RRIRGRPPRLPRPRPRPWRDPRP  Escherichia coli TOP10  shrunken log2 fold change          0.0475
6  RRIRHRPPRLPRPRPRPSAAPRP  Escherichia coli TOP10  shrunken log2 fold change           0.334
7  RRIRWRPPRLPRPRPRPYFEPRP  Escherichia coli TOP10  shrunken log2 fold change          -0.483
8  RRIRRRPPRLPRPRPRPTTTPRP  Escherichia coli TOP10  shrunken log2 fold change            0.34
